# Target Or Test System: P. falciparum apicoplast DNA polymerase (Pf-apPOL) (Plasmodium falciparum, UniProt Q8ILY1)
# Sequence (Q8ILY1 entry or part of it): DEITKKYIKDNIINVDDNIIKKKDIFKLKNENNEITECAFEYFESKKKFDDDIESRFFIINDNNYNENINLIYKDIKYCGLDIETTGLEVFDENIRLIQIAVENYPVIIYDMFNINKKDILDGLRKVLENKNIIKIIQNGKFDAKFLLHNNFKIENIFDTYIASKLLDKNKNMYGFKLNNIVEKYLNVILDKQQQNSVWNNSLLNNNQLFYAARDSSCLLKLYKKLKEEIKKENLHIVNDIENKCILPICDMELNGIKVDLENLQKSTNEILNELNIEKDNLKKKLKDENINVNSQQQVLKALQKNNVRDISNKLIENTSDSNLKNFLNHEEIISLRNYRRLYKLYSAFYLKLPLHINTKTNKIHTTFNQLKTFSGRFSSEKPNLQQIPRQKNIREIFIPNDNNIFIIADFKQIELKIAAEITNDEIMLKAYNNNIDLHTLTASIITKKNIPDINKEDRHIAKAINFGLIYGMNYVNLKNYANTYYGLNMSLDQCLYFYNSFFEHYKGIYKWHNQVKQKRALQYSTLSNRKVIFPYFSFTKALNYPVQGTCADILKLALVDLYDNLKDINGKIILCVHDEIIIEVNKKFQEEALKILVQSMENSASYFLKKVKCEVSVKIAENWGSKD
# Test Name: Fluorescence-based high-throughput DNA polymerase assay (molecular beacon), primary screen and dose-response
# Type: biochemical
# Condition: DRC-1; 90'; concentration 40
# binarize % inhibition Apol 90': threshold 70% inclusive, high side condition met, low side condition not met

{"columns": ["Compound", "Category"],
 "data": [
  ["Cc1cccc2c(C(=O)NC(C)C)cc(N(C)C)nc12", "condition not met"],
  ["Oc1ccc(N=Nc2ccccc2)c(O)c1", "condition not met"],
  ["N#CC(=NNc1cc(C(F)(F)F)cc(C(F)(F)F)c1)C(=O)c1ccco1", "condition met"],
  ["COc1ccc(C(=O)Nc2cccc(-c3nc4ncccc4o3)c2)cc1[N+](=O)[O-]", "condition not met"],
  ["O=C(Cn1ccc2c(=O)[nH]ccc21)Nc1ccc(Cl)cc1 [Molecule 36, O=C(Cn1ccc2c1cc[nH]c2=O)Nc1ccc(cc1)Cl]", "condition met"],
  ["Cc1ccc(C)c(CSc2nc(C3CCCCC3)c(C#N)c(=O)[nH]2)c1", "condition met"],
  ["O=C(Nc1ccc2c(c1)Cc1cc(NC(=O)c3ccco3)ccc1-2)c1ccco1", "condition not met"],
  ["COc1cccc(C(=O)N2CCc3c(nc4cc(-c5ccccc5)[nH]n4c3=O)C2)c1OC", "condition met"],
  ["O=C(CSc1nnc(-c2ccncc2)[nH]1)c1ccc(O)c(O)c1", "condition met"],
  ["O=[N+]([O-])c1cc2c(cc1CN1CCCCCC1)OCO2", "condition not met"],
  ["CCOc1ccccc1-c1nc(-c2ccc(=O)[nH]c2)no1 [Molecule 76, CCOc1ccccc1c1onc(n1)c1ccc(=O)[nH]c1]", "condition not met"],
  ["O=C(O)c1c(F)c(F)c(-c2c(F)c(F)c(C(=O)O)c(F)c2F)c(F)c1F", "condition not met"],
  ["COc1cccc(Oc2c(C(F)(F)F)oc3cc(OC(=O)N(C)C)ccc3c2=O)c1", "condition not met"],
  ["COc1ccc(NC(=O)Cn2ccc3c(=O)[nH]ccc32)cc1 [Molecule 13, COc1ccc(cc1)NC(=O)Cn1ccc2c1cc[nH]c2=O]", "condition met"]
]}
